Every entry's value here was drawn from patent US10988451B2.

- System: SKBR3 cells
- protocol details: SKBR3 Cell Viability Assay
- Assay type: cell-based
- condition details: 72 hours, CellTiter Glo, read-out: MCL-1 CV SKBR3 EC50
Note: every record was labeled by where its EC50 sits among group 1 (below 0.3 µM), group 2 (0.3 µM to below 2 µM), group 3 (2 µM or more)

compound: CO[C@H]1/C=C/CCC[S@@](=O)(NC(=O)C2CC2)=NC(=O)c2ccc3c(c2)N(C[C@@H]2CC[C@H]21)C[C@@]1(CCCc2cc(Cl)ccc21)CO3
category: group 3

Lab note: sort COc1nn(C)cc1C(=O)N[S@@]1(=O)=NC(=O)c2ccc3c(c2)N(C[C@@H]2CC[C@H]2[C@@H](OC)/C=C/[C@H](OC(=O)CCc2ccccc2)[C@H](C)C1)C[C@@]1(CCCc2cc(Cl)ccc21)CO3 into the matching EC50 band.
group 1

Place this compound in its band: CO[C@H]1/C=C/CCC[S@@](=O)(NC(=O)Cc2ccnn2C)=NC(=O)c2ccc3c(c2)N(C[C@@H]2CC[C@H]21)C[C@@]1(CCCc2cc(Cl)ccc21)CO3
group 2
